This collection of values is drawn from patent US20100249419A1.

test system: Salmonella typhimurium TA100; assay: Reverse mutation test (Ames test), TA100; type: cell-based; conditions: TA100, with addition of S9mix
Quantity Kind: Mutagenicity

Example entries and their recorded answers appear below.
Qu. Provide measured Mutagenicity value, entry: `CCC[CH2][Sn]([CH2]CCC)([CH2]CCC)[c]1ccc2nc(-c3ccc(OCCO)cc3)cn2c1`
Ans. Negative

Qu. Provide measured Mutagenicity value, entry: `CCOc1ccc(-c2cn3cc(I)ccc3n2)cc1`
Ans. Negative

Qu. Provide measured Mutagenicity value, entry: `OCCOc1cccc(-c2cn3cc(I)ccc3n2)c1`
Ans. Negative

Qu. Provide measured Mutagenicity value, entry: `OCCCOc1ccc(-c2cn3cc(I)ccc3n2)cc1`
Ans. Negative

Next compound, Mutagenicity to be filled in.
Qu. Provide measured Mutagenicity value, entry: `OCCOc1ccc(-c2cn3cc(I)ccc3n2)cc1`
Ans. Negative
